# method-summary: Rat Hepatocyte Stability (Test E)
# Assay type: in vitro ADME
# test-settings: rat, hepatocytes, geometric mean if run multiple times
Criterion: hepatocyte CLint meeting or surpassing 20 µL/min/1e6 cells. Met: MET. Not met: NOT MET.

Look over these answered cases.
COc1cc(F)c(O[C@H]2CC[C@@H](C(=O)O)CC2)cc1C(=O)N[C@@H]1[C@H]2CC[C@H](C2)[C@@H]1C(=O)Nc1cccc(C(C)(C)C)c1 [Example 189]; MET
COc1cc(F)c(O[C@H]2CC[C@@](C)(C(=O)O)CC2)cc1C(=O)N[C@@H]1CCC[C@]1(F)C(=O)Nc1cccc(S(=O)(=O)C(F)(F)F)c1 [Example 355]; NOT MET

Please tell me: is the molecule COc1cc(C#N)c(O[C@H]2CC[C@@](C)(C(=O)O)CC2)cc1C(=O)N[C@@H]1[C@H]2CC[C@H](C2)[C@@H]1C(=O)NCC1(C)CCC1 [Example 592] at or over 20 µL/min/1e6 cells in terms of hepatocyte CLint? NOT MET

Please tell me: is the molecule COc1cc(F)c(O[C@H]2CC[C@@H](C(=O)O)CC2)cc1C(=O)N[C@H]1[C@@H](C(=O)Nc2ccc(F)c(S(F)(F)(F)(F)F)c2)[C@@H]2C=C[C@H]1C2 [Example 488] at or over 20 µL/min/1e6 cells in terms of hepatocyte CLint? MET

Please tell me: is the molecule CCC1(CNC(=O)[C@H]2[C@@H]3CC[C@@H](C3)[C@H]2NC(=O)c2cc(O[C@H]3CC[C@@](C)(C(=O)O)CC3)c(C#N)cc2OC)CCC1 [Example 86] at or over 20 µL/min/1e6 cells in terms of hepatocyte CLint? MET

Please tell me: is the molecule COc1cc(F)c(O[C@H]2CC[C@@](C)(C(=O)O)CC2)cc1C(=O)N[C@@H]1[C@H]2CC[C@H](C2)[C@@H]1C(=O)N[C@@H](C)C(C)C [Example 42] at or over 20 µL/min/1e6 cells in terms of hepatocyte CLint? NOT MET

Reference for the values: patent US11667602B2
